- Tested on: Escherichia coli TOP10;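 further: peptides expressed intracellularly from a pBAD plasmid library in pooled LB shake-flask culture, induced with 0.3% L-arabinose, DNA abundance read by NGS, three biological replicates, DESeq2 with apeglm shrinkage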
- EXPERIMENTAL_DETAILS: shrunken log2 fold change of peptide-encoding DNA abundance (4.5 h post-induction vs induction); higher = less antimicrobial activity (less host growth inhibition)
- CONDITION_INFO: time post-induction: 4.5 h; library: site-saturation at positions 5, 18, 19, 20
METRIC: shrunken log2 fold change
# respond with the number and nothing more

Sample RRIRFRPPRLPRPRPRPSPYPRP — what was its shrunken log2 fold change?
-0.481

Try this sequence next: RRIRARPPRLPRPRPRPLWMPRP
0.264

Same lookup for RRIRGRPPRLPRPRPRPHMCPRP , please.
-0.01

Next entry: RRIRFRPPRLPRPRPRPMANPRP
-0.104

RRIRPRPPRLPRPRPRPDAIPRP ?
0.148

Could you do the same for RRIRVRPPRLPRPRPRPVKPPRP , please?
0.247

# iterate: RRIRNRPPRLPRPRPRPEKNPRP
0.907

What about RRIRVRPPRLPRPRPRPWFDPRP ?
-0.439

Request: RRIRERPPRLPRPRPRPENYPRP
2

Again, but for RRIRNRPPRLPRPRPRPNGLPRP
0.00468

Also RRIRPRPPRLPRPRPRPHDNPRP , if possible.
-0.347

Repeat for the following sequence: RRIRKRPPRLPRPRPRPDWWPRP
-0.0103

Also RRIRHRPPRLPRPRPRPKKSPRP ?
-0.0145

Do the same for RRIRLRPPRLPRPRPRPHMKPRP please
-0.024

Follow-up entry: RRIRVRPPRLPRPRPRPKMVPRP
-0.109

Ok, now RRIRERPPRLPRPRPRPEMCPRP
-0.0143

// repeat for RRIRIRPPRLPRPRPRPTTVPRP and report
-0.319
